So I've got a bunch of molecules here, and I need their MIC values.
# Tested on: Staphylococcus aureus
# Test description: Antibacterial activity against methicillin-sensitive Staphylococcus aureus after 16 hrs by NCCLS agar dilution method
# Format: functional
Hi! Could you send only the number? It should be in µg/mL, unit omitted.

q: // returns reported MIC for input CC(=O)NC[C@H]1CN(c2ccc(N3CCOCC3)c(F)c2)C(=O)O1 [LINEZOLID]
a: 1

q: # iterate: O=C1O[C@@H](CO)[C@@H]2COc3cc(-c4ccc(C(O)C5CC5)nc4)ccc3N12 (some centres undefined)
a: 1

q: # iterate: Cc1cc(C#N)ncc1-c1ccc2c(c1)OC[C@H]1[C@H](CO)OC(=O)N21
a: 0.25

q: # iterate: C[C@@H](O)C(O)c1ccc(-c2ccc3c(c2)OC[C@H]2[C@H](CO)OC(=O)N32)cn1 (some centres undefined)
a: 2

q: # iterate: CC(C)N1CC(c2ccc(-c3ccc4c(c3)OC[C@H]3[C@H](CO)OC(=O)N43)cn2)OC1=O (some centres undefined)
a: 1

q: # iterate: O=C1O[C@@H](CO)[C@@H]2COc3cc(-c4ccc(Cn5cnnn5)nc4)ccc3N12
a: 2

q: # iterate: CC(O)c1ccc(-c2ccc3c(c2)OC[C@H]2[C@H](CO)OC(=O)N32)cn1 (some centres undefined)
a: 1

q: # iterate: CN1CCN(c2ccc(-c3ccc4c(c3)OC[C@H]3[C@H](CO)OC(=O)N43)cn2)C(=O)C1
a: 2

----------
# Tested on: Staphylococcus epidermidis
# Test description: Antibacterial activity against methicillin-sensitive Staphylococcus epidermidis after 16 hrs by NCCLS agar dilution method
# Type: functional
Readout kind: MIC (µg/mL)
Hi! Could you send only the number? It should be in µg/mL, unit omitted.

q: // returns reported MIC for input N#Cc1ccc(-c2ccc3c(c2)OC[C@H]2[C@H](CO)OC(=O)N32)cn1
a: 0.25

q: # iterate: O=C1COCCN1c1ccc(-c2ccc3c(c2)OC[C@H]2[C@H](CO)OC(=O)N32)cn1
a: 2

q: # iterate: O=C1OCCN1c1ccc(-c2ccc3c(c2)OC[C@H]2[C@H](CO)OC(=O)N32)cn1
a: 0.5

q: # iterate: NC1(c2ccc(-c3ccc4c(c3)OC[C@H]3[C@H](CO)OC(=O)N43)cn2)CC1
a: 1

q: # iterate: CC(C)N1CCN(c2ccc(-c3ccc4c(c3)OC[C@H]3[C@H](CO)OC(=O)N43)cn2)C1=O
a: 2

q: # iterate: CN1CCC[C@H]2CN(c3ccc(-c4ccc5c(c4)OC[C@H]4[C@H](CO)OC(=O)N54)cn3)C[C@H]21
a: 4

----------
# System: Staphylococcus epidermidis
# Test description: Antibacterial activity against methicillin-sensitive Staphylococcus epidermidis after 16 hrs by NCCLS agar dilution method
# Format: functional
So I've got a bunch of compounds here, and I need their MIC values.
Hi! Could you send only the number? It should be in µg/mL, unit omitted.

q: // returns reported MIC for input O=C1O[C@@H](CO)[C@@H]2COc3cc(-c4ccc(Cn5cnnn5)nc4)ccc3N12
a: 1

q: # iterate: CC(O)c1ccc(-c2ccc3c(c2)OC[C@H]2[C@H](CO)OC(=O)N32)cn1 (stereo partly drawn)
a: 1

q: # iterate: O=C1O[C@@H](CO)[C@@H]2COc3cc(-c4ccc(C5(O)CCCC5)nc4)ccc3N12
a: 1
